Origin of the recorded values: patent US20150119254

# TARGET: IFN-gamma (UniProt P01579 P01579:24-166)
# Sequence (P01579 24-166, one chain of several): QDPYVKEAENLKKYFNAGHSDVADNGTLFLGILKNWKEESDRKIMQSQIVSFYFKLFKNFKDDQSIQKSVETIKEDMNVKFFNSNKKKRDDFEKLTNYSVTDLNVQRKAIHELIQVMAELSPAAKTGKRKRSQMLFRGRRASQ
# PROTOCOL_SUMMARY: SPR; existing aptamer control
# RUN_PARAMETERS: tags: PeproTech; chain copies: 2
RESULT_TYPE: Kd (µM)
Form entry: value (µM) — number only.

Per the record, contIF-57 (ssDNA) DNA: TTCTGTCAATCGATCGTATCAGTCCACAATGGGGTTGGTTGTGTTGGGTGTTGTGT has Kd of 0.067
